system: Botrytis cinerae; assay: Fungicidal activity against cucumber gray mold rot (CGM) disease; assay type: in vivo; conditions: 50 ppm, control value
test.readout: C. V. (%) CGM
Reply with just the number (in %).

The recorded C. V. (%) CGM for COC(=O)C(=CSC)c1ccccc1COc1cccc(OC(F)=Cc2ccc(Cl)cc2)c1 is 9

The recorded C. V. (%) CGM for CON=C(C(=O)OC)c1ccccc1COc1cccc(OC(F)=Cc2ccc(Cl)cc2)c1 is 15

The recorded C. V. (%) CGM for CCOc1ccc(C(=C(F)Oc2cccc(OCc3ccccc3C(=COC)C(=O)OC)c2)C(F)(F)F)cc1 is 0

The recorded C. V. (%) CGM for CON=C(C(=O)OC)c1ccccc1COc1cccc(OC(F)=C(c2cccc(C)c2)C(F)(F)F)c1 is 0

The recorded C. V. (%) CGM for CNC(=O)C(=COC)c1ccccc1COc1cccc(OC(F)=C(c2ccc(C)cc2)C(F)(F)F)c1 is 9

The recorded C. V. (%) CGM for COC(=O)C(=CSC)c1ccccc1COc1cccc(OC(F)=Cc2ccccc2)c1 is 33

The recorded C. V. (%) CGM for CNC(=O)C(=COC)c1ccccc1COc1cccc(OC(F)=C(c2ccc(Cl)cc2)C(F)(F)F)c1 is 22

The recorded C. V. (%) CGM for COC=C(C(=O)OC)c1ccccc1COc1cccc(OC(F)=C(c2ccc(F)cc2)C(F)(F)F)c1 is 33

The recorded C. V. (%) CGM for CNC(=O)C(=COC)c1ccccc1COc1cccc(OC(F)=C(c2cccc(F)c2)C(F)(F)F)c1 is 0

The recorded C. V. (%) CGM for CNC(=O)/C(=N/OC)c1ccccc1COc1cccc(OC(F)=C(c2ccc(C)c(C)c2)C(F)(F)F)c1 is 0

The recorded C. V. (%) CGM for CNC(=O)C(=NOC)c1ccccc1COc1cccc(OC(F)=C(c2cccc(C)c2)C(F)(F)F)c1 is 28

The recorded C. V. (%) CGM for COC=C(C(=O)OC)c1ccccc1COc1cccc(OC(F)=Cc2cccc(C)c2)c1 is 41

The recorded C. V. (%) CGM for CNC(=O)C(=COC)c1ccccc1COc1cccc(OC(F)=Cc2ccc(C)cc2)c1 is 15

The recorded C. V. (%) CGM for COC=C(C(=O)OC)c1ccccc1COc1cccc(OC(F)=C(c2cc(Cl)cc(Cl)c2)C(F)(F)F)c1 is 0

The recorded C. V. (%) CGM for COC(=O)C(=CSC)c1ccccc1COc1cccc(OC(F)=Cc2ccc(C)c(C)c2)c1 is 0

###

test system: Botrytis cinerae; assay: Fungicidal activity against cucumber gray mold rot (CGM) disease; format: in vivo; conditions: 50 ppm, control value
# binarize C. V. (%) CGM: threshold 20% inclusive, high side TRUE, low side FALSE

Prompt: Identify whether the reported C. V. (%) CGM of the following molecule is 20% or greater: CNC(=O)C(=COC)c1ccccc1COc1cccc(OC(F)=Cc2ccc(Cl)cc2)c1 [Compound 38]
Response: FALSE

Prompt: Identify whether the reported C. V. (%) CGM of the following molecule is 20% or greater: COC=C(C(=O)OC)c1ccccc1COc1cccc(OC(F)=C(c2cccc(Cl)c2)C(F)(F)F)c1 [Compound 84]
Response: FALSE

Prompt: Identify whether the reported C. V. (%) CGM of the following molecule is 20% or greater: CCCCc1ccc(C(=C(F)Oc2cccc(OCc3ccccc3C(=COC)C(=O)OC)c2)C(F)(F)F)cc1 [Compound 62]
Response: TRUE

Prompt: Identify whether the reported C. V. (%) CGM of the following molecule is 20% or greater: COC=C(C(=O)OC)c1ccccc1COc1cccc(OC(F)=C(c2ccc(C)cc2)C(F)(F)F)c1 [Compound 53]
Response: TRUE

Prompt: Identify whether the reported C. V. (%) CGM of the following molecule is 20% or greater: CNC(=O)C(=COC)c1ccccc1COc1cccc(OC(F)=C(c2cccc(C)c2)C(F)(F)F)c1 [Compound 50]
Response: FALSE

Prompt: Identify whether the reported C. V. (%) CGM of the following molecule is 20% or greater: CON=C(C(=O)OC)c1ccccc1COc1cccc(OC(F)=C(c2ccc3c(c2)OCO3)C(F)(F)F)c1 [Compound 82]
Response: FALSE

Prompt: Identify whether the reported C. V. (%) CGM of the following molecule is 20% or greater: CON=C(C(=O)OC)c1ccccc1COc1cccc(OC(F)=C(c2cc(Cl)cc(Cl)c2)C(F)(F)F)c1 [Compound 103]
Response: FALSE

Prompt: Identify whether the reported C. V. (%) CGM of the following molecule is 20% or greater: CNC(=O)C(=COC)c1ccccc1COc1cccc(OC(F)=Cc2cccc(OC)c2)c1 [Compound 26]
Response: FALSE

Prompt: Identify whether the reported C. V. (%) CGM of the following molecule is 20% or greater: CO/N=C(/C(=O)OC)c1ccccc1COc1cccc(OC(F)=C(c2ccc(C)c(C)c2)C(F)(F)F)c1 [Compound 65]
Response: FALSE

Prompt: Identify whether the reported C. V. (%) CGM of the following molecule is 20% or greater: CNC(=O)/C(=C/OC)c1ccccc1COc1cccc(OC(F)=C(c2ccccc2)C(F)(F)F)c1 [Compound 46]
Response: TRUE

Prompt: Identify whether the reported C. V. (%) CGM of the following molecule is 20% or greater: CON=C(C(=O)OC)c1ccccc1COc1cccc(OC(F)=C(c2ccc(Cl)cc2)C(F)(F)F)c1 [Compound 90]
Response: TRUE

Prompt: Identify whether the reported C. V. (%) CGM of the following molecule is 20% or greater: CNC(=O)C(=COC)c1ccccc1COc1cccc(OC(F)=Cc2cc(C)cc(C)c2)c1 [Compound 18]
Response: TRUE

Prompt: Identify whether the reported C. V. (%) CGM of the following molecule is 20% or greater: CNC(=O)C(=NOC)c1ccccc1COc1cccc(OC(F)=C(c2ccccc2)C(F)(F)F)c1 [Compound 48]
Response: TRUE
